Biological target: T1, ZFP SBS#1245 (synthetic)
T1 chain: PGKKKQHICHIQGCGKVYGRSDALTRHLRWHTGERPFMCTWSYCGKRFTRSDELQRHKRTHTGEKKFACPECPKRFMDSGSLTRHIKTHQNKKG
Experiment: EMSA
Conditions: tags: MBP fusion
metricName: pKd
To interpret pKd, take it as minus log10 of a concentration measured in moles per litre.

Query GTCGCGGTG (dsDNA) DNA 1: GTCGCGGTG DNA 2: CACCGCGAC yields pKd of 9.99

Where these numbers come from: patent US20030068675
